assay text: BSK_LPS_SRB: Viability Assessment in the BioMAP Diversity Plus: LPS Assay (AID 2283079);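 further: total protein by sulforhodamine B absorbance as a cytotoxicity measure; measured one day after compound addition; fitted in both directions against DMSO so loss or gain of signal counts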
assay context: primary human HUVEC with PBMC
The source made the active and inactive calls. How the source made its calls: active means hit-call score of the fitted dose curve at least 0.9, where 1 is the maximum; inactive means score below 0.9.
Would you mind answering with one of these outcomes? label 1 = active, label 0 = inactive

Examples from the recorded data:
{"columns": ["molecule", "assigned label"],
 "data": [
  ["COc1ccc(C(=CC(=O)N2CCOCC2)c2ccc(Cl)cc2)cc1OC", "label 0"],
  ["CCC(=NOC/C=C/Cl)C1=C(O)CC(C2CCOCC2)CC1=O (centres undefined)", "label 0"],
  ["O=C(O)c1cc(Oc2ccc(C(F)(F)F)cc2Cl)ccc1[N+](=O)[O-]", "label 0"],
  ["CNc1cnn(-c2cccc(C(F)(F)F)c2)c(=O)c1Cl", "label 0"],
  ["CCCOCC(=Nc1ccc(Cl)cc1C(F)(F)F)n1ccnc1", "label 1"],
  ["CCOP(=O)(OCC)Oc1cc(C)nc(C(C)C)n1", "label 0"]
]}

State the result this test recorded for C[N+]1(C)CCCCC1 .
label 0

State the result this test recorded for CC(C1CC1)C(O)(Cn1cncn1)c1ccc(Cl)cc1 (centres undefined) .
label 0

State the result this test recorded for CC(C)N(C(=O)SCC(Cl)=C(Cl)Cl)C(C)C .
label 1

###

Read-out: Cytochrome P450 3A4 (Homo sapiens)
assay text: LTEA_HepaRG_CYP3A4: Life Technologies and Expression Analysis (LTEA) Assay for CYP3A4 using HepaRG (AID 2283487)
assay context: mRNA level, 48 h; actives raise or lower the signal
Calls of active or inactive are those of the source. How the source made its calls: active means hit-call score of the fitted dose curve at least 0.9, where 1 is the maximum; inactive means score below 0.9.
Would you mind answering with one of these outcomes? 1 for active, -1 for inactive

Examples from the recorded data:
{"columns": ["compound", "assigned label"],
 "data": [
  ["CCC(=O)Nc1ccc(Cl)c(Cl)c1", -1],
  ["CCOP(=S)(OCC)SCCSCC", 1],
  ["COP(=O)(NC(C)=O)SC (stereo unspecified)", -1],
  ["CC(C1CC1)C(O)(Cn1cncn1)c1ccc(Cl)cc1 (stereo unspecified)", 1],
  ["CCCCSP(=O)(SCCCC)SCCCC", 1]
]}

State the result this test recorded for COP(=O)(OC)OC(Br)C(Cl)(Cl)Br (stereo unspecified) .
-1

###

Read-out: ABC Transporter (ABCB11), ABCB11 (gene 8647)
assay text: LTEA_HepaRG_ABCB11: Life Technologies and Expression Analysis (LTEA) Assay for ABC Transporter (ABCB11) using HepaRG (AID 2283463)
assay context: mRNA level, 48 h; actives raise or lower the signal
Active and inactive are the calls of the source. How the source made its calls: active means hit-call score of the fitted dose curve at least 0.9, where 1 is the maximum; inactive means score below 0.9.
Would you mind answering with one of these outcomes? active, inactive

Examples from the recorded data:
{"columns": ["compound", "assigned label"],
 "data": [
  ["CC(C)N(C(=O)SCC(Cl)=C(Cl)Cl)C(C)C", "inactive"],
  ["Cc1cc(C2CC2)nc(Nc2ccccc2)n1", "active"],
  ["C=C(C)[C@H]1Cc2c(ccc3c2O[C@@H]2COc4cc(OC)c(OC)cc4[C@@H]2C3=O)O1", "active"],
  ["CCc1cccc(CC)c1N(COC)C(=O)CCl", "inactive"],
  ["CC(COc1ccc(Oc2ccccc2)cc1)Oc1ccccn1 (stereo not given)", "inactive"]
]}

State the result this test recorded for CCCCOC(=O)[C@@H](C)Oc1ccc(Oc2ccc(C#N)cc2F)cc1 .
inactive

State the result this test recorded for CC[C@H](C)[C@H]1O[C@]2(C=C[C@@H]1C)C[C@@H]1C[C@@H](C/C=C(\C)[C@@H](O[C@H]3C[C@H](OC)[C@@H](O[C@H]4C[C@H](OC)[C@@H](NC)[C@H](C)O4)[C@H](C)O3)[C@@H](C)/C=C/C=C3\CO[C@@H]4[C@H](O)C(C)=C[C@@H](C(=O)O1)[C@]34O)O2 .
active

State the result this test recorded for O=[N+]([O-])c1cc(C(F)(F)F)c(Cl)c([N+](=O)[O-])c1Nc1ncc(C(F)(F)F)cc1Cl .
active

State the result this test recorded for CCCCOC(=O)c1ccccc1C(=O)O .
inactive

State the result this test recorded for CCCSP(=O)(OCC)Oc1ccc(Br)cc1Cl (stereo not given) .
inactive

###

Read-out: Cytochrome P450 (CYP1A1), CYP1A1 (gene 1543)
assay text: LTEA_HepaRG_CYP1A1: Life Technologies and Expression Analysis (LTEA) Assay for Cytochrome P450 (CYP1A1) using HepaRG (AID 2283454)
assay context: mRNA level, 48 h; actives raise or lower the signal
Active and inactive are the calls of the source. The calls were made as follows: active = hit-call score of the fitted dose curve at least 0.9, where 1 is the maximum; inactive = score below 0.9.
Kindly state AC50 for each of the entries shown.

Field: example entries. Status: answers known.
{"columns": ["compound", "AC50"],
 "data": [
  ["CCOP(=S)(OCC)Oc1ccc([N+](=O)[O-])cc1", "15.4 µM (active)"],
  ["CCCOCC(=Nc1ccc(Cl)cc1C(F)(F)F)n1ccnc1", "12.8 µM (active)"]
]}

Now examine the next entry.
Fill in reported AC50 for this entry: CCOP(=O)(NC(C)C)Oc1ccc(SC)c(C)c1 (stereo not drawn)
50 µM (active)

###

assay text: ATG_CMV_CIS: Attagene CIS-FACTORIAL HepG2 Assay for human CMV (Internal Marker) (AID 2282928);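 further: endpoint acts as a background internal control marker rather than a target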
assay context: HepG2 CMV promoter reporter, transcription factor profiling; actives raise or lower the signal
Calls of active or inactive are those of the source. The calls were made as follows: active = hit-call score of the fitted dose curve at least 0.9, where 1 is the maximum; inactive = score below 0.9.
Would you mind answering with one of these outcomes? Yes = active, No = inactive

Examples from the recorded data:
{"columns": ["compound", "assigned label"],
 "data": [
  ["CCCSP(=O)(OCC)SCCC", "No"],
  ["FC(F)C(F)(F)OCC(Cn1cncn1)c1ccc(Cl)cc1Cl (stereo not drawn)", "Yes"],
  ["CC(Oc1cccc(Cl)c1)C(=O)O (stereo not drawn)", "No"],
  ["Cc1nn(-c2cc(NS(C)(=O)=O)c(Cl)cc2Cl)c(=O)n1C(F)F", "No"],
  ["Cc1ccn2nc(S(=O)(=O)Nc3c(F)cccc3F)nc2n1", "No"],
  ["C=C(C)[C@H]1Cc2c(ccc3c2O[C@@H]2COc4cc(OC)c(OC)cc4[C@@H]2C3=O)O1", "Yes"],
  ["CC(=NC#N)N(C)Cc1ccc(Cl)nc1", "No"]
]}

Moving on to another compound below.
State the result this test recorded for CCCCN(CC)c1c([N+](=O)[O-])cc(C(F)(F)F)cc1[N+](=O)[O-] .
No

###

Read-out: Interferon-gamma inducible Protein 10 (IP10), CXCL10 (gene 3627)
assay text: BSK_BE3C_IP10: BioMAP Diversity Plus: BE3C Assay for Interferon-gamma inducible Protein 10 (IP10) Biomarker Activity (AID 2283034)
assay context: primary human bronchial epithelial cells; actives raise or lower the signal
The source made the active and inactive calls. How the source made its calls: active means hit-call score of the fitted dose curve at least 0.9, where 1 is the maximum; inactive means score below 0.9.
Would you mind answering with one of these outcomes? yes = active, no = inactive

Examples from the recorded data:
{"columns": ["compound", "assigned label"],
 "data": [
  ["CCOP(=O)(OCC)Oc1cc(C)nc(C(C)C)n1", "no"],
  ["FC(F)C(F)(F)OCC(Cn1cncn1)c1ccc(Cl)cc1Cl (centres undefined)", "yes"],
  ["CC(Oc1cccc(Cl)c1)C(=O)O (centres undefined)", "no"],
  ["Cc1cc(C2CC2)nc(Nc2ccccc2)n1", "no"],
  ["C#CC(C)(C)NC(=O)c1cc(Cl)cc(Cl)c1", "yes"],
  ["C[N+]1(C)CCCCC1", "no"],
  ["COP(=O)(OC)C(O)C(Cl)(Cl)Cl (centres undefined)", "no"],
  ["CCCSP(=O)(OCC)SCCC", "no"],
  ["CCOP(=S)(OCC)Oc1ccc2c(C)c(Cl)c(=O)oc2c1", "no"],
  ["CCc1cccc(CC)c1N(COC)C(=O)CCl", "yes"]
]}

State the result this test recorded for S=C1NCCN1 .
no

State the result this test recorded for CNc1cnn(-c2cccc(C(F)(F)F)c2)c(=O)c1Cl .
no

State the result this test recorded for COc1cc(OC)nc(Sc2cccc(Cl)c2C(=O)O)n1 .
no

State the result this test recorded for CCOP(=O)(NC(C)C)Oc1ccc(SC)c(C)c1 (centres undefined) .
no

###

assay text: Tanguay_ZF_120hpf_MORT_legacy: (Legacy) Oregon State University Tanguay Lab 120 Hour Post-fertilization zebrafish Assay for Mortality (AID 2283633)
Active and inactive are the calls of the source. Rule for the calls: active = hit-call score of the fitted dose curve at least 0.9, where 1 is the maximum; inconclusive = response in the unintended direction; inactive = score below 0.9.
quantity: outcome

{"columns": ["compound", "quantity", "recorded result"],
 "data": [
  ["CCOP(=O)(SC(C)CC)N1CCSC1=O (stereo not drawn)", "outcome", "inactive"],
  ["CCc1cccc(C)c1N(C(=O)CCl)C(C)COC (stereo not drawn)", "outcome", "inactive"],
  ["CCCSP(=O)(OCC)Oc1ccc(Br)cc1Cl (stereo not drawn)", "outcome", "inactive"]
]}

###

Read-out: adenosine kinase (ADK) gene, ADK (gene 132)
assay text: LTEA_HepaRG_ADK: Life Technologies and Expression Analysis (LTEA) Assay for adenosine kinase (ADK) gene using HepaRG (AID 2283471)
assay context: mRNA level, 48 h; actives raise or lower the signal
Activity calls are given as the source filed them. Rule for the calls: active = hit-call score of the fitted dose curve at least 0.9, where 1 is the maximum; inactive = score below 0.9.
Would you mind answering with one of these outcomes? Y for active, N for inactive

{"columns": ["compound", "assigned label"],
 "data": [
  ["Cc1cc(C2CC2)nc(Nc2ccccc2)n1", "N"],
  ["CSc1nnc(C(C)(C)C)c(=O)n1N", "N"],
  ["COP(=O)(NC(C)=O)SC (stereo not drawn)", "N"],
  ["CCCOCC(=Nc1ccc(Cl)cc1C(F)(F)F)n1ccnc1", "Y"],
  ["Cc1nn(-c2cc(NS(C)(=O)=O)c(Cl)cc2Cl)c(=O)n1C(F)F", "N"]
]}

State the result this test recorded for S=C1NCCN1 .
Y

State the result this test recorded for Cc1ccn2nc(S(=O)(=O)Nc3c(F)cccc3F)nc2n1 .
N

State the result this test recorded for CN(C)NC(=O)CCC(=O)O .
N

State the result this test recorded for CC(C)N(C(=O)SCC(Cl)=C(Cl)Cl)C(C)C .
N

State the result this test recorded for Nc1c(Cl)cc([N+](=O)[O-])cc1Cl .
Y

State the result this test recorded for CCc1cccc(C)c1N(C(=O)CCl)C(C)COC (stereo not drawn) .
N

State the result this test recorded for CN(C)C(=O)Nc1cccc(C(F)(F)F)c1 .
N

State the result this test recorded for COP(=O)(OC)C(O)C(Cl)(Cl)Cl (stereo not drawn) .
N

State the result this test recorded for CC(Oc1cccc(Cl)c1)C(=O)O (stereo not drawn) .
N

src = PubChem BioAssay (EPA / NIEHS)
